- Assay Remarks: Acute toxicity
- Condition Set: mouse, in vivo; mice, oral administration, estimated
Assay Endpoint: LD50

CCCCCCC#Cc1nc(N)c2ncn([C@@H]3O[C@H](CO)[C@@H](O)[C@H]3O)c2n1 ≥ 1000 mg/kg

Moving on to the next compound.
Exercise: Request the reported LD50 associated with `CCCCCCCCCCCCCCC#Cc1nc(N)c2ncn([C@@H]3O[C@H](CO)[C@@H](O)[C@H]3O)c2n1`
Key: ≥ 1000 mg/kg

* * *

- Assay Remarks: Effect on renal blood flow (renal blood flow reduction effect)
- Condition Set: dog, in vivo
Assay Endpoint: ED50 (µg/kg)
Field: numeric (µg/kg). Do not append units.

Exercise: I would be grateful if you could share the reported ED50 for `Nc1ncnc2c1ncn2[C@@H]1O[C@H](CO)[C@@H](O)[C@H]1O` .
Key: 0.2

* * *

- Tested on: coronary artery / renal artery
- Assay Remarks: Safety coefficient (margin of safety from renal blood flow reduction and coronary artery blood flow increase)
- Set-up: species or system mongrel dogs
- Condition Set: dog, in vivo
Assay Endpoint: Safety Coefficient

CCCCCCCC#Cc1nc(N)c2ncn([C@@H]3O[C@H](CO)[C@@H](O)[C@H]3O)c2n1 > 40
CCCCCCCCCCCCCCC#Cc1nc(N)c2ncn([C@@H]3O[C@H](CO)[C@@H](O)[C@H]3O)c2n1 30
CCCCCCCCC#Cc1nc(N)c2ncn([C@@H]3O[C@H](CO)[C@@H](O)[C@H]3O)c2n1 > 20
CCCCC#Cc1nc(N)c2ncn([C@@H]3O[C@H](CO)[C@@H](O)[C@H]3O)c2n1 75

Exercise: Value lookup for Safety Coefficient; key = `CCCCCCC#Cc1nc(N)c2ncn([C@@H]3O[C@H](CO)[C@@H](O)[C@H]3O)c2n1`
Key: > 375

* * *

- System: vertebral artery
- Assay Remarks: Vertebral artery blood flow increasing effect
- Format: in vivo, mongrel dogs
- Condition Set: Canis lupus familiaris; anesthetized dogs, intraarterial into vertebral artery; 100% = increase by 100 μg/kg papaverine hydrochloride
Assay Endpoint: ED50 (µg/kg)
Please state the figure in µg/kg; there is no need to write the unit.

Exercise: Enter reported ED50 observed with vertebral artery for `Nc1ncnc2c1ncn2[C@@H]1O[C@H](CO)[C@@H](O)[C@H]1O`
Key: 0.52

Exercise: Similarly, `CCCCCCC#Cc1nc(N)c2ncn([C@@H]3O[C@H](CO)[C@@H](O)[C@H]3O)c2n1` ?
Key: 0.4

Exercise: Entry `CCCCC#Cc1nc(N)c2ncn([C@@H]3O[C@H](CO)[C@@H](O)[C@H]3O)c2n1` please
Key: 0.14

Exercise: Then what about the compound `CCCCCCCC#Cc1nc(N)c2ncn([C@@H]3O[C@H](CO)[C@@H](O)[C@H]3O)c2n1` ?
Key: 1.2

* * *

Measured ED50 by item
- Assay Remarks: in vivo
- Condition Set: dog

Exercise: Which ED50 is listed for `CCCCC#Cc1nc(N)c2ncn([C@@H]3O[C@H](CO)[C@@H](O)[C@H]3O)c2n1` ?
Key: 0.15 µg/kg

Exercise: Input `CCCCCCC#Cc1nc(N)c2ncn([C@@H]3O[C@H](CO)[C@@H](O)[C@H]3O)c2n1`
Key: > 3 µg/kg

* * *

- Assay Remarks: in vivo
- Condition Set: dog
Assay Endpoint: ED50

Compound	Assay Endpoint	Value
CCCCCCCCC#Cc1nc(N)c2ncn([C@@H]3O[C@H](CO)[C@@H](O)[C@H]3O)c2n1 [Compound 6]	ED50	> 3 µg/kg

Exercise: Reported ED50 for CCCCCCCC#Cc1nc(N)c2ncn([C@@H]3O[C@H](CO)[C@@H](O)[C@H]3O)c2n1 [Compound 5] : what is it?
Key: > 3 µg/kg

Exercise: Same question, CCCCCCCCCCCCCCC#Cc1nc(N)c2ncn([C@@H]3O[C@H](CO)[C@@H](O)[C@H]3O)c2n1 [Compound 12, 2-hexadecynyladenosine] this time
Key: > 3 µg/kg
